# TARGET SYSTEM: JAK3 enzyme (Homo sapiens (Human), UniProt P52333)
# Sequence (P52333 whole entry, species assumed): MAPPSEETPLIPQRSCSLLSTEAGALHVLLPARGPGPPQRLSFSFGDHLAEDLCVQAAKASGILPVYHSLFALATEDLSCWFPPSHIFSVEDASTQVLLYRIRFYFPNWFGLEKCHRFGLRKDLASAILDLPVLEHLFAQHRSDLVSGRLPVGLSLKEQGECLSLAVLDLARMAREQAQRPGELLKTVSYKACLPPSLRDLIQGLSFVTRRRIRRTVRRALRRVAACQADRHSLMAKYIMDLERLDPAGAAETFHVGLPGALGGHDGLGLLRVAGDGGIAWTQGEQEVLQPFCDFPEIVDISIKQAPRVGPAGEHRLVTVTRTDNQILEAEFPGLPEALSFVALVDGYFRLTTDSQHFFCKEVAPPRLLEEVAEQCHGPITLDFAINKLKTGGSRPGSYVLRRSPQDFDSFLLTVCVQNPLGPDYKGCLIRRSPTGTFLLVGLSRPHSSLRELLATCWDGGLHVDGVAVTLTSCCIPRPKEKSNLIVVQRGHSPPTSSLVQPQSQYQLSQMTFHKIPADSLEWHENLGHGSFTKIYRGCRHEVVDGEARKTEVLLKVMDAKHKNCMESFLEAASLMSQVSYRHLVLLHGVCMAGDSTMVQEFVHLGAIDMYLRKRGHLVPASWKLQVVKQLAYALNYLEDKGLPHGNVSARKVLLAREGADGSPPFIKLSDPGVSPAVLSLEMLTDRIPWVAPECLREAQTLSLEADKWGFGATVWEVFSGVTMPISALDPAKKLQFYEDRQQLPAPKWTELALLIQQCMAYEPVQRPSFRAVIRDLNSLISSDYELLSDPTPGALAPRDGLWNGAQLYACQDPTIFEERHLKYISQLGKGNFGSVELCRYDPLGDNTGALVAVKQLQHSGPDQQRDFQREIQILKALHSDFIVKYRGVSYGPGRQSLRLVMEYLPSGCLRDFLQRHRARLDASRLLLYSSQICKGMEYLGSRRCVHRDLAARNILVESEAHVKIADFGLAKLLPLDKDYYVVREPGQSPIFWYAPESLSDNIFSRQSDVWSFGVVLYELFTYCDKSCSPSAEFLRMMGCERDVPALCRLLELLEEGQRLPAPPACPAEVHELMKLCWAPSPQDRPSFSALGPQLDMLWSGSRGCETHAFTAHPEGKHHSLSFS
# PROCEDURE TEXT: JAK Caliper Enzyme Assay at 4 μM or 1 mM ATP
# Assay type: biochemical
# MEASUREMENT PARAMETERS: read-out: JAK3 (4 μM ATP) IC50; 4 μM ATP
Provide the recorded pIC50 for the entries that follow.
One number for each entry, as −log10 of the molar value.

// solved cases for pIC50 follow
{"columns": ["COMPOUND", "pIC50"],
 "data": [
  ["C=CC(=O)N1CCC(Nc2cnc3[nH]cc(-c4ccnc(F)c4)c3n2)CC1", 9.70],
  ["C=CC(=O)N1C[C@H](Nc2ncnc3[nH]ccc23)C[C@@H](N(C)C)C1", 7.74],
  ["C=CC(=O)N1CCC[C@@H](Nc2ncnc3[nH]cc(-c4ccccc4O)c23)C1", 8.54],
  ["COCCc1c[nH]c2ncnc(N[C@@H]3CCCN(C(=O)/C=C/CN(C)C)C3)c12", 6.28]
]}

List reported pIC50 for each of these compounds:
1. C=CC(=O)N1CCC(Nc2cnc3[nH]cc(-c4cnc(OC)nc4)c3n2)CC1
2. C=CC(=O)N1CC[C@]2(C)CCN(c3ncnc4[nH]ccc34)[C@@H]2C1
3. C=CC(=O)N1CCC(Nc2cnc3[nH]cc(C(=O)N[C@H](C)CC)c3n2)CC1

Output:
1: 9.40; 2: 8.49; 3: 9.52

List reported pIC50 for each of these compounds:
1. C=CC(=O)N1CC[C@@H](C)[C@@H](N(C)c2ncnc3[nH]ccc23)C1
2. C=CC(=O)N1CC[C@@H](O)[C@@H](Nc2ncnc3[nH]ccc23)C1 (racemic)
3. C=CC(=O)N1CC2COCC(C1)N2c1cnc2[nH]cc(C(=O)NC(C)C)c2n1
4. C=CC(=O)NC[C@@]12C[C@@H]1CN(c1cnc3[nH]cc(C(=O)NC(C)C)c3n1)C2
5. C=CC(=O)N1C[C@H](Nc2ncnc3[nH]ccc23)C[C@H](OC)C1

Output:
1. 7.12
2. 8.28
3. 7.43
4. 8.02
5. 9.22

List reported pIC50 for each of these compounds:
1. C=CC(=O)N1CCC[C@@H](Nc2ncnc3[nH]cc(-c4ccc(C(=O)N(C)C)cc4)c23)C1
2. C=CC(=O)N1CCC[C@@H](Nc2ncnc3[nH]cc(C(=O)N(C)C)c23)C1
3. C=CC(=O)N1CCC(Oc2cnc3[nH]cc(-c4ccc(C#N)nc4)c3n2)CC1
4. CN(C)C/C=C/C(=O)N1CC[C@@H]2CCN(c3ncnc4[nH]ccc34)[C@@H]2C1

Output:
1. 8.55
2. 6.65
3. 7.90
4. 7.24

Input: What does the data say about its pIC50? Entry: C=CC(=O)N1CCC(Oc2cnc3[nH]cc(C(=O)NC(C)C)c3n2)CC1
Output: 9.70
